Entries and their measured Tm follow.
B1: Parvalbumin alpha, P02625 (parent)
chain: MSMTDLLSAEDIKKAIGAFTAADSFDHKKFFQMVGLKKKSADDVKKVFHILDKDKSGFIEEDELGSILKGFSSDARDLSAKETKTLMAAGDKDGDGKIGVEEFSTLVAES

# Variants of: B1
# Conditions: Rattus norvegicus; pH 7.4; Thermal; DSC; sodium phosphate 10 mM; NaCl 0.20 M; structure 1RTP; whole UniProt chain shown
Give your result in °C as a bare value.

// below: answered variants
A22P H27P
43.6
K81S
44.5

Q: Note Tm for the variant shown: A22P K81S
Ans: 47.8

Q: Note Tm for the variant shown: `H27P`
Ans: 51.4

Attribution: FireProtDB (doi:10.1021/bi034721x)
